experiment: TLR3 IRF3 reporter activation blockers – cell-based, poly I:C stimulus, luciferase, 10K MLSCN set, primary screen (AID 602277); details: HEK293-TLR3 RL24 IRF3 luciferase reporter, at 10 µM, stronger effect = higher value
inhibition listing for selected molecules.
Write it as a number; the unit % goes unstated.

Quick note, inhibition for "CCCn1c(SCC(=O)NCc2ccco2)nc2c1c(=O)n(C)c(=O)n2C" landed at 10.9

Quick note, inhibition for "Cc1cc2oc(=O)cc(CN3CCCCC3)c2cc1C(C)C" landed at 40.9

Quick note, inhibition for "O=C(O)CCCCCNc1nc(=S)[nH]c2ccccc12" landed at 19.2

Quick note, inhibition for "COc1ccc(CN(C(=O)CN2C(=O)COc3ccccc32)C2CCCC2)c(OC)c1" landed at 26.4

Quick note, inhibition for "Cc1oc2c(c1C(=O)NCc1ccccc1)CCCC2" landed at 4.5

Quick note, inhibition for "COc1ccccc1C(=O)NCC(=O)Nc1ccccc1" landed at 8.93

----------
molecular target: Voltage-gated potassium channel subunit beta-2 (Rattus norvegicus); test: inhibitors of rat Kvbeta2 reductase activity – biochemical, NADPH fluorescence, primary screen (AID 622); details: recombinant KvBeta, 4-cyanobenzaldehyde reduction, at 10 µM;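 also: slope of raw intensity against log time taken from 70 to 1610 s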
Activity calls are given as the source filed them.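 The calls were made as follows: active = fluorescence slope higher than the sample average by over 3 SD (cut at about -0.22 in these data, passing the limit was not always enough); inactive = the rest.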
Your reply should match one of these outcome classes. active, inactive

compound: CCN1CCN(Cc2ccc(NC(=O)Nc3ccccc3)cc2)CC1
answer_label: inactive

compound: COc1ccc(S(=O)(=O)Nc2ccc(S(=O)(=O)N3CCCCC3)cc2)cc1OC
answer_label: inactive

compound: Cc1cc(C)c(C#N)c(SCC(=O)Nc2ccc(S(=O)(=O)Nc3onc(C)c3C)cc2)n1
answer_label: inactive

compound: COc1cc(S(=O)(=O)NC2CCCCC2C)ccc1Cl (stereo unspecified)
answer_label: inactive

Status in this test for "CCOC(=O)c1ccc(NC(=O)N2CCN(Cc3cccc(F)c3)CC2)cc1" ?
inactive

Status in this test for "CN1CCN(S(=O)(=O)c2ccc(NC(=O)c3ccc(F)cc3)cc2)CC1" ?
inactive

Status in this test for "CN1CCN(c2nc3c(c(=O)[nH]c(=O)n3C)n2CCSc2nc3ccccc3s2)CC1" ?
inactive

Status in this test for CNC(=O)OC(C)CNS(=O)(=O)c1ccc(C)cc1 (stereo unspecified) ?
inactive

Status in this test for "COC(=O)c1cccc(NC(=O)CN2CCN(Cc3ccccc3)CC2)c1" ?
inactive

Status in this test for "COC(=O)Cn1ncc2c(C)n(Cc3ccccc3)c(C)c2c1=O" ?
inactive

Status in this test for "Cc1nc(/N=C\N(C)C)sc1C(=O)Nc1ccccc1" ?
inactive

----------
test: reduction of polyQ htt aggregates in cells – imaging, exon1htt(103Q)mCFP cells, high-content imaging, primary screen (AID 483); conditions: exon1htt(103Q)mCFP cell line, aggregate imaging, at 2 µM; stronger effect = higher value;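 also: compound exposure lasted 3 days before fixation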
inhibition of aggregation listing for selected compounds.
Write it as a number; the unit % goes unstated.

// solved cases for inhibition of aggregation follow
compound: CCOC(=O)NC(=O)CSc1nnc(C)s1
parameter: inhibition of aggregation
measurement_units: %
recorded_measurement: -0.4

compound: COC(=O)Cn1cnc2sc(C)c(S(=O)(=O)N3CCC(C)CC3)c2c1=O
parameter: inhibition of aggregation
measurement_units: %
recorded_measurement: -10.1

compound: O=C1c2ccccc2C(=O)N1CCN1CCCCC1
parameter: inhibition of aggregation
measurement_units: %
recorded_measurement: -9.5

compound: CCOC(=O)c1c(C)[nH]c(C=Nc2ccccc2)c1O
parameter: inhibition of aggregation
measurement_units: %
recorded_measurement: 12.6

compound: Cc1cc(NC(=O)Cc2c(F)cccc2Cl)no1
parameter: inhibition of aggregation
measurement_units: %
recorded_measurement: -15.9

compound: Nc1scc(-c2ccncc2)c1Cl
parameter: inhibition of aggregation
measurement_units: %
recorded_measurement: 23

Quick note, inhibition of aggregation for "[O-][n+]1c2c(nn1-c1ccccc1Cl)-c1nonc1CC2" landed at -16.7

Quick note, inhibition of aggregation for "Cc1ccc(Cn2c(=O)c3ccccc3n3c(CCC(=O)O)nnc23)cc1" landed at -2.1

Quick note, inhibition of aggregation for "Cc1[nH]nc2c1C1(CCN(C(=O)c3ccccc3)CC1)C(C#N)=C(N)O2" landed at 22.6

Quick note, inhibition of aggregation for "O=C(O)CCc1ccc(-c2ccc(F)cc2)n1CCC(=O)O" landed at -12.9

Quick note, inhibition of aggregation for "CCOC(=O)N1CCN(C(=O)CN(C2CCCCC2)S(=O)(=O)c2ccc(F)cc2)CC1" landed at 18.3

Quick note, inhibition of aggregation for "CC(=O)N1CCc2cc(S(=O)(=O)CCC(=O)N3CCN(c4ccccn4)CC3)ccc21" landed at 2.8

Quick note, inhibition of aggregation for "CS(=O)(=O)N(CC(=O)Nc1ccc2c(c1)OCCO2)Cc1ccccc1" landed at -2.9

Quick note, inhibition of aggregation for "COc1ccc(N2CCN(c3ncnc4c3cnn4-c3ccc(C)cc3C)CC2)cc1" landed at -20.3

Quick note, inhibition of aggregation for O=C(Cn1c(C(=O)NCC2CCCO2)cc2sccc21)c1ccccc1 (centres undefined) landed at 20.2
